Please provide measured Relative changed percentage (%) for the entries that follow.
# Tested on: Jurkat T cells
# Format: cell-based, human
# Protocol Conditions: IL-2 production level in treated group compared to control group; 48 hours treatment, then anti-CD3/anti-CD28 12 hours
One number for each entry, in %.

Molecule | Readout Label | Numeric Readout
Cc1ncc(C[n+]2csc(CCOP(=O)(O)OP(=O)(O)O)c2C)c(N)n1 [TIIIAMINE PYROPIIOSPIIATE] | Relative changed percentage (%) | 9.753
CC/C=C\C/C=C\C/C=C\CCCCCCCC(=O)O | Relative changed percentage (%) | −24.53
Cc1c(O)cc2c(c1C)O[C@](C)(CCC[C@H](C)CCC[C@H](C)CCCC(C)C)CC2 [(+)-GAMMA-TOCOPHEROL] | Relative changed percentage (%) | 1.56
N[C@@H](CS)C(=O)O [L-CYSTEINE BIOULTRA,, L-CYSTEINE] | Relative changed percentage (%) | −22.74

Now look at this one.
Exercise: Tell me its Relative changed percentage (%) given Cc1ncc(CO)c(C=O)c1O.Cl [Pyridoxal Hydrochloride] as the entry.
Solution: 7.787

====

Assignment: determine reported Relative changed percentage (%) for the given compounds.
# Tested on: Jurkat T cells
# Format: cell-based, human
# Protocol Conditions: IL-2 production level in treated group compared to control group; 48 hours treatment, then anti-CD3/anti-CD28 12 hours
Structures can show the parent of a compound that is named as a salt.
Give bare numbers, in %.

In the examples that follow, each entry is paired with its recorded Relative changed percentage (%).
Compound | Unit Descriptor | Numeric Readout
[Cl][Cr]([Cl])[Cl] [Chromium Chloride] | % | −35.28
C[C@@H]1O[C@@H](OC[C@H]2O[C@@H](Oc3c(-c4ccc(O)c(O)c4)oc4cc(O)cc(O)c4c3=O)[C@H](O)[C@@H](O)[C@@H]2O)[C@H](O)[C@H](O)[C@H]1O [Rutoside trihydrate] | % | 14.9881
Oc1ccccc1 | % | 26.79
CC1=C[C@H](O)CC(C)(C)C1/C=C/C(C)=C/C=C/C(C)=C/C=C/C=C(C)/C=C/C=C(C)/C=C/C1=C(C)CCCC1(C)C (stereo partly drawn) | % | 29.1

Report Relative changed percentage (%) for every entry below.
1. CC1=C[C@H](O)CC(C)(C)[C@H]1/C=C/C(C)=C/C=C/C(C)=C/C=C/C=C(C)/C=C/C=C(C)/C=C/C1=C(C)C[C@@H](O)CC1(C)C
2. Nc1ncnc2c1ncn2[C@@H]1O[C@H](CO)[C@@H](O)[C@H]1O [ADENOSINE FREE BASE]
3. O=S(=O)([O-])[O-].[Cu+2] [COPPER(II) SULFATE, ANHYDROUS,/copper, COPPER(II) SULFATE, ANHYDROUS]
4. O=C([O-])/C=C/C(=O)[O-].[Fe+2] [Ferrous Fumarate]
5. C[N+](C)(C)[C@@H](Cc1c[nH]c(=S)[nH]1)C(=O)[O-] [L-(+)-ERGOTHIONEINE INNER SALT]
6. C[C@]12CCC(=O)C=C1CC[C@@H]1[C@@H]2CC[C@]2(C)C(=O)CC[C@@H]12
7. CC1=C(/C=C/C(C)=C/C=C/C(C)=C/C=C/C=C(C)/C=C/C=C(C)/C=C/C2=C(C)C(=O)[C@@H](O)CC2(C)C)C(C)(C)C[C@H](O)C1=O
8. Cc1cn([C@H]2C[C@H](O)[C@@H](CO)O2)c(=O)[nH]c1=O

Solution:
1: 31.92; 2: 3.704; 3: 51.65; 4: 6.278; 5: −10.39; 6: 25.93; 7: 12.26; 8: 39.63

For each of the items listed, what is its Relative changed percentage (%)?
1. C[C@]12CC[C@@H]3c4ccc(O)cc4CC[C@H]3[C@@H]1C[C@@H](O)[C@@H]2O
2. O[C@H]1[C@H](O)[C@@H](O)[C@H](O)[C@@H](O)[C@H]1O [Inositol]
3. [Na+].[Na+].[O]=[Mo](=[O])([O-])[O-] [Sodium Molybdate]

Solution:
1. 2.789
2. 15.38
3. 22.1968

====

Kindly state Relative changed percentage (%) for each of the entries shown.
# Tested on: Jurkat T cells
# Type: cell-based, human
# Protocol Conditions: IL-2 production level in treated group compared to control group; 48 hours treatment, then anti-CD3/anti-CD28 12 hours
Give bare numbers, in %.

Hi, could you look up Relative changed percentage (%) for each item in my list?
1. Cl.N=C(N)N [GUANIDINE IIYDROCIILORIDE,, GUANIDINE IIYDROCIILORIDE]
2. NS(=O)(=O)c1cc(C(=O)O)c(NCc2ccco2)cc1Cl [FUROSEMIDE/LASIX, FUROSEMIDE, reference compound]

Solution:
1. 41.83
2. 29.01

Fill in Relative changed percentage (%) for each of the 3 compounds listed.
1. NCC(=O)O
2. CC/C=C\C/C=C\C/C=C\C/C=C\C/C=C\CCCCCC(=O)O
3. O=C(O)CCCC[C@@H]1SC[C@@H]2NC(=O)N[C@@H]21 [d-Biotin]

Solution:
1: −8.966; 2: −19.39; 3: 29.84

Would you mind giving Relative changed percentage (%) for every compound in the list below?
1. O=C([O-])[C@H](O)[C@@H](O)[C@H](O)[C@H](O)CO.[K+] [Potassium Gluconate]
2. COc1nc(N)nc2nc[nH]c12
3. O=P([O-])([O-])O.[K+].[K+] [Potassium Phosphate Dibasic]

Solution:
1. 97.7133
2. 6.274
3. 177.4846

Exercise: Identify Relative changed percentage (%) associated with the compound COc1cc(/C=C/c2ccc(O)cc2)cc(OC)c1
Solution: 6.874

====

# Tested on: Jurkat T cells
# Assay type: cell-based, human
# Protocol Conditions: IL-2 production level in treated group compared to control group; 48 hours treatment, then anti-CD3/anti-CD28 12 hours
Readout Label: Relative changed percentage (%)
One number for each entry, in %.

Use these answered entries as a reference point.
Compound | Assay System | Relative changed percentage (%)
CC(=O)O[C@H]1CC[C@@]2(C)C(=CC[C@H]3[C@@H]4CC[C@H](C(C)=O)[C@@]4(C)CC[C@@H]32)C1 [Pregnenolone Acetate] | Jurkat T cells | 82.91
[S]=[Pb] [LEAD(II) SULFIDE] | Jurkat T cells | −13.63
CC[C@H](C)[C@H](NC(=O)[C@H](Cc1ccc(O)cc1)NC(=O)[C@@H](NC(=O)[C@H](CCCNC(=N)N)NC(=O)[C@@H](N)CC(=O)O)C(C)C)C(=O)N[C@@H](Cc1cnc[nH]1)C(=O)N1CCC[C@H]1C(=O)N[C@@H](Cc1ccccc1)C(=O)O | Jurkat T cells | 17.25
CC(C)CCC[C@@H](C)[C@H]1CC[C@H]2[C@@H]3CC=C4C[C@@H](O)CC[C@]4(C)[C@H]3CC[C@]12C | Jurkat T cells | −31.89
C[C@]12CC[C@@H]3c4ccc(O)cc4CC[C@H]3[C@@H]1CCC2=O | Jurkat T cells | 25.0199

Please supply Relative changed percentage (%) for each of the following items, keeping them in order.
1. CC[N+](CC)(CC)CC.O=S(=O)([O-])O
2. CC(=O)C(=O)O
3. CC(C)=CCC/C(C)=C/C=C/C(C)=C/C=C/C(C)=C/C=C/C=C(C)/C=C/C=C(C)/C=C/C=C(\C)CCC=C(C)C
4. CC1=C(/C=C/C(C)=C/C=C/C(C)=C/C=C/C=C(C)/C=C/C=C(C)/C=C/C2=C(C)C[C@@H](O)CC2(C)C)C(C)(C)CCC1
5. O=P([O-])(O)O.[K+] [Monopotassium Phosphate]

Solution:
["−35.95", 10.42, 30, 24.88, 28.67]

Lab note: each compound below needs its Relative changed percentage (%) filled in.
1. CN(CC(=O)O)C(=N)N
2. CC(O)CC(=O)O (centres unmarked) [3-HYDROXYBUTYRIC ACID]
3. CC(C)C[C@H](N)C(=O)O

Solution:
−40.99
5.082
−7.16

Dear colleague, could you send me Relative changed percentage (%) for each of the items below? Thanks.
1. COc1ccc2[nH]cc(CCNC(C)=O)c2c1
2. O=C(O)CC(O)C(=O)O (racemic) [DL-MALIC ACID]
3. Cn1cnc2c1c(=O)[nH]c(=O)n2C
4. N[C@@H](CC(=O)[O-])C(=O)[O-].[K+].[K+] [L-Aspartic acid potassium salt]

Solution:
1. 56.15
2. 40.01
3. 25.42
4. 4.421

====

# Tested on: Jurkat T cells
# Type: cell-based, human
# Protocol Conditions: IL-2 production level in treated group compared to control group; 48 hours treatment, then anti-CD3/anti-CD28 12 hours
I'd be grateful if you could share measured Relative changed percentage (%) for these entries.
One number for each entry, in %.

Study these solved cases before continuing.
Compound | Numeric Readout
O=P([O-])([O-])O.[K+].[K+] [Dipotassium Phosphate] | −5.393
Cn1c(=O)c2c(ncn2C)n(C)c1=O | 170.0384
Cl.N[C@@H](Cc1c[nH]cn1)C(=O)O [L-Histidine hydrochloride] | 3.531
O=C(O)CCC(=O)O | 4.14
O.OC[C@H]1O[C@@H](O[C@H]2[C@H](O)[C@@H](O)C(O)O[C@@H]2CO)[C@H](O)[C@@H](O)[C@H]1O (stereo partly drawn) [D-LACTOSE MONOHYDRATE] | 22.47
Nc1nc2c(ncn2[C@@H]2O[C@@H]3COP(=O)([O-])O[C@H]3[C@H]2O)c(=O)[nH]1.[Na+] | 8.266

Batch lookup, Relative changed percentage (%) per entry.
1. N[C@@H](CCC(=O)N[C@@H](CS)C(=O)NCC(=O)O)C(=O)O [L-glutathione]
2. CC(=O)CC(=O)[O-].[Li+] [LITHIUM ACETOACETATE/Acetoacetic acid, LITHIUM ACETOACETATE]

Solution:
[13.46, "−21.48"]

Exercise: Quote Relative changed percentage (%) reported for CCCCCCCCCCCCCCCC(=O)O please.
Solution: −2.643
